IC50, IL-8 release, HDFa stimulated with IL-36γ for assorted binders
molecular target: human IL-1RAcP on cells (human, UniProt Q9NPH3 21-570); experiment: cell-based or functional assay
Give the quantity in pM, number only.

Examples with answers:
# BINDER, UNITS, RESULT
records = [
    ("h11C5 YKD (antibody, human IgG1, kappa, V domains shown, Variable domains of h11C5 YKD on the same modified IgG1 kappa constant regions (AEASS); Printed as 'h1105' in much of the text; also called h1105) VH: EVQLVESGGGLVQPGGSLRLSCAASGFTFSNYAMSWVRQAPGKGLEWVATVTEGGDYNYYLDDVKGRFTISRDNAKNSLYLQMNSLRAEDTAVYYCARDDWPYFFDYWGQGTLVTVSS VL: DIQMTQSPSSLSASVGDRVTITCRASENIYSNLAWYQQKPGKSPKLLVYGYKNLADVPSRFSGSGSGTDYTLTISSLQPEDFATYYCQHFKTTPRTFGGGTKVEIKR", "pM", 240),
    ("Y024149_h_IgG1f_AEASS (antibody, V domains shown, Human IgG1f with AEASS effector-silencing residues, kappa light chain) VH: EVQLVESGGGLVQPGGSLRLSCAASGGTFGGSAMHWVRQAPGKGLVWVSRILTYGGIATYAESVKGRFTISRDNAKNTLYLQMNSLRAEDTAVYYCARGSSEYPKFDIWGQGTLVTVSS VL: DIQMTQSPSTLSASVGDRVTITCRASQSISSWLAWYQQKPGKAPKLLIYDASSLESGVPSRFSGSGSGTEFTLTISSLQPEDFATYYCHQLLIYPHTFGQGTKVEIKR", "pM", 26),
    ("Y024148_h_IgG1f_AEASS (antibody, V domains shown, Human IgG1f with AEASS effector-silencing residues, kappa light chain) VH: EVQLVESGGGLVQPGGSLRLSCAASGGTIGGSAVHWVRQAPGKGLVWVSRILTYSSTTQYAESVKGRFTISRDNAKNTLYLQMNSLRAEDTAVYYCARGSSEYPKFDIWGQGTLVTVSS VL: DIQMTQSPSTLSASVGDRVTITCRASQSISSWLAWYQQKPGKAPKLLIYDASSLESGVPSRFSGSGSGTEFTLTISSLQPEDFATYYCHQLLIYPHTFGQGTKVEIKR", "pM", 42),
    ("Y024084_h_IgG1f_AEASS (antibody, V domains shown, also called Morphosys 24084; Mor Y024084) VH: QVQLVQSGAEVKKPGASVKVSCKASGYTFTSYYMHWVRQAPGQGLEWMGIINPSGGSTSYAQKFQGRVTMTRDTSTSTVYMELSSLRSEDTAVYYCARGFVTSGIDYWGQGTLVTVSS VL: QSVLTQPPSVSAAPGQKVTISCSGSSSNIGNNYVSWYQQLPGTAPKLLIYDNNKRPSGIPDRFSGSKSGTSATLGITGLQTEDEADYYCQTWTYTGRLWIVFGGGTKLTVLG", "pM", 22),
]

Enquiry: Please look at this binder and report its IC50, IL-8 release, HDFa stimulated with IL-36γ: R001032 (1A05) (antibody, human IgG1, kappa, V domains shown, Rabbit variable domains of prior art 1A05 on human IgG1 kappa constant regions with AEASS; also called P013.S.01.B.A05) VH: LEQSGGGAEGGLVKPGGSLELCCKASGFSLSTSYWRCWVRQAPGKGLEWIGCIYAGSGDVTYYANWVNGRFTLSRDIDQSTGCLQLNSLTAADTAMYYCASGVGFGYFNLWGQGTLVTVSS VL: ALVMTQTPSPVSAAVGGTVTINCQASEDIYSNLAWFQQKPGQPPKLLIYDASTLASGVPSRFSGSGSGTEFTLTISGLQSDDAATYYCLGVYTHISADNAFGGGTEVVVKR
Return: 67

Enquiry: Please look at this binder and report its IC50, IL-8 release, HDFa stimulated with IL-36γ: R001031 (CAN04) (antibody, human IgG1, kappa, V domains shown, Variable domains of prior art CAN04 on human IgG1 kappa constant regions with AEASS) VH: QVQLVQSGAEVKKPGSSVKVSCKASGYAFSSSWMNWVRQAPGQGLEWMGRIYPGDGNTHYAQKFQGRVTLTADKSTSTAYMELSSLRSEDTAVYYCGEGYLDPMDYWGQGTLVTVSS VL: DIQMTQSPSSLSASVGDRVTITCSASQGINNYLNWYQQKPGKAPKLLIHYTSGLHAGVPSRFSGSGSGTDYTLTISSLQPEDVATYYCQQYSILPWTFGGGTKVEIKR
Return: 8
